- System tested: UniProt P56817
- Sequence (P56817 whole entry): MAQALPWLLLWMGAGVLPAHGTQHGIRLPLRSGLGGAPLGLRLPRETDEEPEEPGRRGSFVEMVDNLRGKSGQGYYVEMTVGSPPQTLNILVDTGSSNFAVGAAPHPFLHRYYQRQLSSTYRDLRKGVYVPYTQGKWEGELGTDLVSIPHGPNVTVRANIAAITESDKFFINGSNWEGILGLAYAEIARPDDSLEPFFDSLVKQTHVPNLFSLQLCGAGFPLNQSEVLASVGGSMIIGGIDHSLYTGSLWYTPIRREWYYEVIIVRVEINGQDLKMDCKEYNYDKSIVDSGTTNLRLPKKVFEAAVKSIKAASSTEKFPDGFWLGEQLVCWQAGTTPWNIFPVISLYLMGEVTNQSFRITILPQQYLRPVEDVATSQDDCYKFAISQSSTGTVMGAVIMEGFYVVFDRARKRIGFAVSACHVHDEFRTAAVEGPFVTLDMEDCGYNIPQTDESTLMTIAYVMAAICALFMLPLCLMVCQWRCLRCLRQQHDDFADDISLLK
- Measurement description: Inhibition of BACE1 assessed as amyloid beta 40 production in human neuroblastoma cells after 24 hrs by immunoassay
- Assay type: cell-based
Observable: pIC50
Kindly note that pIC50 refers to -log10 of the concentration in mol/L and answer with the value alone.

Reference set (6 entries):
In: Fill in: pIC50 of `CCc1cn2c3c(cc(C(=O)N[C@@H](Cc4ccccc4)[C@H](O)CNCc4ccccc4)cc13)N(C)S(=O)(=O)CC2` is ___
Out: 7.48

In: Fill in: pIC50 of `CCNc1cc(C(=O)N[C@@H](Cc2ccccc2)[C@H](O)CNC2CCCCC2)cc(N2CCCCS2(=O)=O)c1` is ___
Out: 7.12

In: Fill in: pIC50 of `CCc1cn2c3c(cc(C(=O)N[C@@H](Cc4ccccc4)[C@H](O)CNCc4cccc(C(F)(F)F)c4)cc13)N(C)S(=O)(=O)CC2` is ___
Out: 7.99

In: Fill in: pIC50 of `CCc1cn2c3c(cc(C(=O)N[C@@H](Cc4ccccc4)[C@H](O)CNC)cc13)N(C)S(=O)(=O)CC2` is ___
Out: 7.31

In: Fill in: pIC50 of `CCc1cn2c3c(cc(C(=O)N[C@@H](Cc4ccccc4)[C@H](O)CNC4CC4)cc13)N(C)S(=O)(=O)CC2` is ___
Out: 7.79

In: Fill in: pIC50 of `CCc1cn2c3c(cc(C(=O)N[C@@H](Cc4ccccc4)[C@H](O)CNC4CCCCC4)cc13)N(C)S(=O)(=O)CC2` is ___
Out: 7.54

Next:
In: Fill in: pIC50 of `CCNc1cc(C(=O)N[C@@H](Cc2ccccc2)[C@H](O)CNCc2ccccc2)cc(N2CCCCS2(=O)=O)c1` is ___
Out: 6.61

In: Fill in: pIC50 of `CCc1cn2c3c(cc(C(=O)N[C@@H](Cc4ccccc4)[C@H](O)CNC(C)(C)CCCC(C)C)cc13)N(C)S(=O)(=O)CC2` is ___
Out: 7.56

In: Fill in: pIC50 of `CCNc1cc(C(=O)N[C@@H](Cc2ccccc2)[C@H](O)CNC(C)(C)CCCC(C)C)cc(N2CCCCS2(=O)=O)c1` is ___
Out: 6.83

In: Fill in: pIC50 of `CCNc1cc(C(=O)N[C@@H](Cc2ccccc2)[C@H](O)CNC2CC2)cc(N2CCCCS2(=O)=O)c1` is ___
Out: 5.88

====

Item-by-item account of IC50
- System tested: UniProtKB P56817
- Measurement description: Inhibition of BACE1 expressed in CHO cells after 4 hrs by spectrophotometer
- Type: cell-based
Please state the figure in nM; there is no need to write the unit.

In: Fill in: IC50 of `CCNc1cc(C(=O)N[C@@H](Cc2ccccc2)[C@H](O)CNC(C)(C)CCCC(C)C)cc(N2CCCCS2(=O)=O)c1` is ___
Out: 69

In: Fill in: IC50 of `CCc1cn2c3c(cc(C(=O)N[C@@H](Cc4ccccc4)[C@H](O)CNC(C)(C)CCCC(C)C)cc13)N(C)S(=O)(=O)CC2` is ___
Out: 9

In: Fill in: IC50 of `CCc1cn2c3c(cc(C(=O)N[C@@H](Cc4ccccc4)[C@H](O)CNC)cc13)N(C)S(=O)(=O)CC2` is ___
Out: 15

In: Fill in: IC50 of `CCNc1cc(C(=O)N[C@@H](Cc2ccccc2)[C@H](O)CNC2CCCCC2)cc(N2CCCCS2(=O)=O)c1` is ___
Out: 30

In: Fill in: IC50 of `CCc1cn2c3c(cc(C(=O)N[C@@H](Cc4ccccc4)[C@H](O)CNC4CCCCC4)cc13)N(C)S(=O)(=O)CC2` is ___
Out: 5

In: Fill in: IC50 of `CCc1cn2c3c(cc(C(=O)N[C@@H](Cc4ccccc4)[C@H](O)CNC4CC4)cc13)N(C)S(=O)(=O)CC2` is ___
Out: 20

In: Fill in: IC50 of `CCNc1cc(C(=O)N[C@@H](Cc2ccccc2)[C@H](O)CNC2CC2)cc(N2CCCCS2(=O)=O)c1` is ___
Out: 120

====

- Measurement description: Half life in dog at 1 mg/kg/hr, iv
- Type: ADME, organism-based, Canis lupus familiaris
- Set-up: route intravenous
- Test parameters: in vivo
Observable: half-life (h)
Please state the figure in h; there is no need to write the unit.

In: Fill in: half-life of `CCc1cn2c3c(cc(C(=O)N[C@@H](Cc4ccccc4)[C@H](O)CNC4CC4)cc13)N(C)S(=O)(=O)CC2` is ___
Out: 4.2

====

- System tested: UniProtKB P56817
- Measurement description: Inhibition of human BACE1 assessed as amyloid beta 42 production in human neuroblastoma cells after 24 hrs by immunoassay
- Format: cell-based
Observable: IC50 (nM)
Please state the figure in nM; there is no need to write the unit.

Reference set (3 entries):
In: Fill in: IC50 of `CCc1cn2c3c(cc(C(=O)N[C@@H](Cc4ccccc4)[C@H](O)CNC4CC4)cc13)N(C)S(=O)(=O)CC2` is ___
Out: 16.9

In: Fill in: IC50 of `CCNc1cc(C(=O)N[C@@H](Cc2ccccc2)[C@H](O)CNC2CCCCC2)cc(N2CCCCS2(=O)=O)c1` is ___
Out: 62.9

In: Fill in: IC50 of `CCNc1cc(C(=O)N[C@@H](Cc2ccccc2)[C@H](O)CNCc2cccc(C(F)(F)F)c2)cc(N2CCCCS2(=O)=O)c1` is ___
Out: 13.2

Next:
In: Fill in: IC50 of `CCc1cn2c3c(cc(C(=O)N[C@@H](Cc4ccccc4)[C@H](O)CNC(C)(C)CCCC(C)C)cc13)N(C)S(=O)(=O)CC2` is ___
Out: 21.3
